Data origin: the supplement of paper PMC9112550

- System: Escherichia coli TOP10;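 further: peptides expressed intracellularly from a pBAD plasmid library in pooled LB shake-flask culture, induced with 0.3% L-arabinose, DNA abundance read by NGS, three biological replicates, DESeq2 with apeglm shrinkage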
- ASSAY NOTES: shrunken log2 fold change of peptide-encoding DNA abundance (4.5 h post-induction vs induction); higher = less antimicrobial activity (less host growth inhibition)
- APPLIED CONDITIONS: time post-induction: 4.5 h; library: site-saturation at positions 5, 18, 19, 20
REPORTED ENDPOINT: shrunken log2 fold change
Numbers only.

Some solved entries appear below for comparison.
SEQUENCE STRING	shrunken log2 fold change
RRIRVRPPRLPRPRPRPYVQPRP	-0.918
RRIRMRPPRLPRPRPRPIQLPRP	-0.0799
RRIRGRPPRLPRPRPRPWGLPRP	0.0474
RRIRSRPPRLPRPRPRPKVVPRP	0.00912
RRIRCRPPRLPRPRPRPSKKPRP	-0.0938
RRIRRRPPRLPRPRPRPDSAPRP	0.288
RRIRERPPRLPRPRPRPKALPRP	-0.113
RRIRERPPRLPRPRPRPLCGPRP	-0.2
RRIRHRPPRLPRPRPRPPSDPRP	0.146
RRIRGRPPRLPRPRPRPLGWPRP	1.27

Return reported shrunken log2 fold change values for all items listed beneath this line.
1. RRIRGRPPRLPRPRPRPNLHPRP
2. RRIRHRPPRLPRPRPRPPMYPRP
3. RRIRFRPPRLPRPRPRPAQIPRP

1: 0.303; 2: -0.739; 3: -0.00279

Return reported shrunken log2 fold change values for all items listed beneath this line.
1. RRIRARPPRLPRPRPRPHSDPRP
2. RRIRTRPPRLPRPRPRPAVIPRP
3. RRIRFRPPRLPRPRPRPDPRPRP
4. RRIRFRPPRLPRPRPRPSPWPRP

[0.39, 0.0431, 0.182, 1.82]

Return reported shrunken log2 fold change values for all items listed beneath this line.
1. RRIRVRPPRLPRPRPRPSRGPRP
2. RRIRHRPPRLPRPRPRPQWKPRP
3. RRIRFRPPRLPRPRPRPNEMPRP
4. RRIRSRPPRLPRPRPRPSTHPRP

1. 0.413
2. -0.0774
3. -0.0729
4. -0.353
